Target: β2-adrenergic receptor (B2-AR) (Homo sapiens)
Construct: expressed in transfected cells
Assay: cAMP Gs dynamic HTRF assay, cells expressing β2-adrenergic receptor
Type: cell-based
Conditions: CHO-K1 (HitHunter) cells; read-out: Average pEC50 [Receptor subtype: B2-AR; Cell type: CHO-K1 (HitHunter)] (converted)
Description: cAMP homogeneous time-resolved fluorescence (HTRF): experimental methods. Compound efficacy is determined using the cAMP Gs dynamic HTRF assay (Cisbio, catalog #62AM4PEC) largely following the manufacturer's instructions, also detailed below. Standard serial dilution curves are 10-point, 5-fold dilutions starting from a highest concentration of 10 μM. […] Assay plates are centrifuged at 500×g for 10 seconds. Compounds and IBMX are prepared at 2× final dose to compensate for addition of cells. […]
measuredQuantity: EC50

Reference set, count: 3
compound=O[C@@H](CNC1(C(F)(F)F)CC1)c1cccc2cccnc12 valuereported="> 1000 nM"
compound=CC(C)(C)NC[C@H](O)c1ccc2c(c1)CC(=O)N2 valuereported="> 1000 nM"
compound=CC(C)CNC[C@H](O)c1cc(F)cc2[nH]ncc12 valuereported="< 10 nM"

Incoming: Can you share its EC50? I mean this compound: CC(C)(C)NC[C@H](O)c1ccc2[nH]c3ccccc3c2c1
Outgoing: 100 to 1000 nM

Incoming: Can you share its EC50? I mean this compound: CC(C)(C)NC[C@@H](O)c1ccnc2[nH]ncc12
Outgoing: > 1000 nM

---

Biological target: β2-adrenergic receptor (B2-AR) (Homo sapiens, UniProt P07550)
Construct: expressed in transfected cells
Sequence (P07550 whole entry): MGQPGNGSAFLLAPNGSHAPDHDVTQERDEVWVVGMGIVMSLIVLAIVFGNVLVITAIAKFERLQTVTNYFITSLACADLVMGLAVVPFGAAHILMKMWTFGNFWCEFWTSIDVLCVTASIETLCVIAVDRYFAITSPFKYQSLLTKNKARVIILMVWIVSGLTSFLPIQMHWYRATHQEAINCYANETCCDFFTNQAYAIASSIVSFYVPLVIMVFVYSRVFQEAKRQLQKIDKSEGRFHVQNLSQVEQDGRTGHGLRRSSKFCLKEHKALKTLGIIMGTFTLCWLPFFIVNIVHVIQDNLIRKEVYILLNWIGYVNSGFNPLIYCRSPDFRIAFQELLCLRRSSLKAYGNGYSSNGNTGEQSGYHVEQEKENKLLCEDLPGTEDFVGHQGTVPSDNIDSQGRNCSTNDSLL
Test: cAMP Gs dynamic HTRF assay, cells expressing β2-adrenergic receptor
Format: cell-based
Settings: CHO-K1 (HitHunter) cells; read-out: Average pEC50 [Receptor subtype: B2-AR; Cell type: CHO-K1 (HitHunter)] (converted)
Entries and their measured EC50 follow.

Reference set, count: 2
smilesrecord=CC(C)(C)NC[C@H](O)c1ccc2c(c1)[nH]c1ncccc12 valuereported="100 to 1000 nM"
smilesrecord=CC(C)(C)NC[C@H](O)c1nccc2[nH]c(=O)ccc12 valuereported="> 1000 nM"

Incoming: Can you share its EC50? I mean this molecule: CC(C)(C)NC[C@H](O)c1ccnc2cccnc12
Outgoing: 10 to 100 nM

Incoming: Can you share its EC50? I mean this molecule: CC(C)(C)NC[C@@H](O)c1cccc2cccnc12
Outgoing: 100 to 1000 nM

Incoming: Can you share its EC50? I mean this molecule: CC(C)(C)NC[C@H](O)c1cccc2c1OCC(=O)N2
Outgoing: < 10 nM

---

Biological target: β1-adrenergic receptor (B1-AR) (Homo sapiens)
Construct: expressed in transfected cells
Test: cAMP Gs dynamic HTRF assay, cells expressing β1-adrenergic receptor
Format: cell-based
Conditions: CHO-K1 (HitHunter) cells; read-out: Average pEC50 [Receptor subtype: B1-AR; Cell type: CHO-K1 (HitHunter)] (converted)
Protocol: cAMP homogeneous time-resolved fluorescence (HTRF): experimental methods. Compound efficacy is determined using the cAMP Gs dynamic HTRF assay (Cisbio, catalog #62AM4PEC) largely following the manufacturer's instructions, also detailed below. Standard serial dilution curves are 10-point, 5-fold dilutions starting from a highest concentration of 10 μM. […] Assay plates are centrifuged at 500×g for 10 seconds. Compounds and IBMX are prepared at 2× final dose to compensate for addition of cells. […]
measuredQuantity: EC50

Reference set, count: 5
smilesrecord=Cc1ccnc2c([C@@H](O)CNC(C)(C)C)cccc12 valuereported="< 10 nM"
smilesrecord=Cc1ccnc2c([C@H](O)CNC(C)(C)C)cccc12 valuereported="100 to 1000 nM"
smilesrecord=CC(C)(C)NC[C@H](O)c1cccc2[nH]c3ncccc3c12 valuereported="< 10 nM"
smilesrecord=COc1ccc([C@@H](O)CNC(C)(C)C)c2cn[nH]c12 valuereported="10 to 100 nM"
smilesrecord=CC(C)(C)NC[C@H](O)c1ccc2cccc(F)c2n1 valuereported="< 10 nM"

Incoming: Can you share its EC50? I mean this molecule: CC(C)(C)NC[C@H](O)c1cc(Cl)c2[nH]cnc2c1
Outgoing: 100 to 1000 nM

Incoming: Can you share its EC50? I mean this molecule: CC(C)(C)NC[C@H](O)c1c2cn[nH]c2cc[n+]1[O-]
Outgoing: 100 to 1000 nM

Incoming: Can you share its EC50? I mean this molecule: Cn1c(=O)ccc2c([C@@H](O)CNC(C)(C)C)cccc21
Outgoing: 10 to 100 nM

Incoming: Can you share its EC50? I mean this molecule: Cc1cc([C@@H](O)CNC(C)(C)C)cc2nc[nH]c12
Outgoing: > 1000 nM

---

Entries and their measured EC50 follow.
Biological target: β1-adrenergic receptor (B1-AR) (Homo sapiens)
Construct: expressed in transfected cells
Assay: cAMP Gs dynamic HTRF assay, cells expressing β1-adrenergic receptor
Assay type: cell-based
Conditions: CHO-K1 (HitHunter) cells; read-out: Average pEC50 [Receptor subtype: B1-AR; Cell type: CHO-K1 (HitHunter)] (converted)
Description: cAMP homogeneous time-resolved fluorescence (HTRF): experimental methods. Compound efficacy is determined using the cAMP Gs dynamic HTRF assay (Cisbio, catalog #62AM4PEC) largely following the manufacturer's instructions, also detailed below. Standard serial dilution curves are 10-point, 5-fold dilutions starting from a highest concentration of 10 μM. […] Assay plates are centrifuged at 500×g for 10 seconds. Compounds and IBMX are prepared at 2× final dose to compensate for addition of cells. […]

Reference set, count: 4
compound="CC(C)(C)NCC(O)c1ccc2ccc(C(F)(F)F)cc2[n+]1[O-] (stereo not drawn)" valuereported="100 to 1000 nM"
compound=CC(C)(C)NC[C@H](O)c1cccc2cccnc12 valuereported="< 10 nM"
compound=CC(C)(C)NC[C@@H](O)c1cccc2ccc(C#N)nc12 valuereported="100 to 1000 nM"
compound=CC(C)(C)NC[C@H](O)c1nccc2[nH]ncc12 valuereported="> 1000 nM"

Incoming: Can you share its EC50? I mean this compound: O=c1ccc2c([C@@H](O)CNC3CCC3)cccc2[nH]1
Outgoing: < 10 nM

Incoming: Can you share its EC50? I mean this compound: Cc1ccc([C@@H](O)CNC(C)(C)C)c2cn[nH]c12
Outgoing: < 10 nM

Incoming: Can you share its EC50? I mean this compound: CC(C)(C)NC[C@@H](O)c1cccc2nccnc12
Outgoing: > 1000 nM

Incoming: Can you share its EC50? I mean this compound: Cc1ccc2cccc([C@H](O)CNC(C)(C)C)c2n1
Outgoing: 100 to 1000 nM

Incoming: Can you share its EC50? I mean this compound: Cn1ncc2c([C@H](O)CNC(C)(C)C)cccc21
Outgoing: 100 to 1000 nM

---

Biological target: β1-adrenergic receptor (B1-AR) (Homo sapiens)
Construct: expressed in transfected cells
Assay: cAMP Gs dynamic HTRF assay, cells expressing β1-adrenergic receptor
Type: cell-based
Details: CHO-K1 (HitHunter) cells; read-out: Average pEC50 [Receptor subtype: B1-AR; Cell type: CHO-K1 (HitHunter)] (converted)
Procedure: cAMP homogeneous time-resolved fluorescence (HTRF): experimental methods. Compound efficacy is determined using the cAMP Gs dynamic HTRF assay (Cisbio, catalog #62AM4PEC) largely following the manufacturer's instructions, also detailed below. Standard serial dilution curves are 10-point, 5-fold dilutions starting from a highest concentration of 10 μM. […] Assay plates are centrifuged at 500×g for 10 seconds. Compounds and IBMX are prepared at 2× final dose to compensate for addition of cells. […]
Entries and their measured EC50 follow.

Reference set, count: 3
compound="CC(C)(C)NC[C@H](O)c1cccc2[nH]cnc12 [Compound 04-24]" valuereported="10 to 100 nM"
compound="Cn1ncc2c([C@@H](O)CNC(C)(C)C)cccc21 [Compound 04-27]" valuereported="< 10 nM"
compound="CC(C)NC[C@H](O)c1cccc2[nH]c(=O)ccc12 [Compound 04-152]" valuereported="< 10 nM"

Next:
Incoming: Can you share its EC50? I mean this compound: CC(C)(C)NC[C@H](O)c1cnc(N)c(Cl)c1 [Compound 02-1]
Outgoing: 100 to 1000 nM

---

Molecular target: β1-adrenergic receptor (B1-AR) (Homo sapiens, UniProt P08588)
Construct: expressed in transfected cells
Sequence (P08588 whole entry): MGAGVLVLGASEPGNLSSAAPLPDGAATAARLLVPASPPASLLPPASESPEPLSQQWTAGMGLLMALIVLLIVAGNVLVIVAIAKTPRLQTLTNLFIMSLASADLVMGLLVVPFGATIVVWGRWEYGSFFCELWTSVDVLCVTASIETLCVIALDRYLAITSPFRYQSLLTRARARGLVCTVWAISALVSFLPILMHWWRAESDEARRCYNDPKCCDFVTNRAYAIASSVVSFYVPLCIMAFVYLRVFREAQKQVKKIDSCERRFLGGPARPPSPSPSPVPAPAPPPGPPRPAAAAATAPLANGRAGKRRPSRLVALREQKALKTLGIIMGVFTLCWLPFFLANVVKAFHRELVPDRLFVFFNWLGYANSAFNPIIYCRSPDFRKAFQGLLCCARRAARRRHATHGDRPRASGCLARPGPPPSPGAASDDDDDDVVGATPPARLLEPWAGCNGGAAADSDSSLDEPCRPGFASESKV
Assay: cAMP Gs dynamic HTRF assay, cells expressing β1-adrenergic receptor
Type: cell-based
Details: CHO-K1 (HitHunter) cells; read-out: Average pEC50 [Receptor subtype: B1-AR; Cell type: CHO-K1 (HitHunter)] (converted)
measuredQuantity: EC50

Reference set, count: 6
compound="CC(C)(C)NC[C@H](O)c1cccc2[nH]ncc12 [Compound 04-153]" measuredquantity=EC50 valuereported="> 1000 nM"
compound=CC(C)(C)NC[C@@H](O)c1ccc(C(F)(F)F)c2cccnc12 measuredquantity=EC50 valuereported="100 to 1000 nM"
compound=Cc1noc2ccc([C@@H](O)CNC(C)(C)C)cc12 measuredquantity=EC50 valuereported="> 1000 nM"
compound=Cc1nc(N)c(Cl)cc1[C@H](O)CNC(C)(C)C measuredquantity=EC50 valuereported="100 to 1000 nM"
compound=O[C@@H](CNC1(C(F)(F)F)CC1)c1cccc2cccnc12 measuredquantity=EC50 valuereported="> 1000 nM"
compound=CC(C)(C)NC[C@H](O)c1cccc2[nH]nc(C#N)c12 measuredquantity=EC50 valuereported="< 10 nM"

Incoming: What is its EC50 for β1-adrenergic receptor (B1-AR) (Homo sapiens, UniProt P08588)? Entry: CC(C)(C)NC[C@@H](O)c1c(F)ccc2cccnc12
Outgoing: > 1000 nM

Incoming: What is its EC50 for β1-adrenergic receptor (B1-AR) (Homo sapiens, UniProt P08588)? Entry: CC(C)(C)NC[C@@H](O)c1ccc2cccc(F)c2n1
Outgoing: 100 to 1000 nM

Incoming: What is its EC50 for β1-adrenergic receptor (B1-AR) (Homo sapiens, UniProt P08588)? Entry: CC(C)(C)NC[C@H](O)c1cccc(O)n1
Outgoing: > 1000 nM

Incoming: What is its EC50 for β1-adrenergic receptor (B1-AR) (Homo sapiens, UniProt P08588)? Entry: Cc1c[nH]c2nccc([C@@H](O)CNC(C)(C)C)c12
Outgoing: > 1000 nM

Incoming: What is its EC50 for β1-adrenergic receptor (B1-AR) (Homo sapiens, UniProt P08588)? Entry: Cc1nc([C@@H](O)CNC(C)(C)C)cnc1N
Outgoing: 100 to 1000 nM

Incoming: What is its EC50 for β1-adrenergic receptor (B1-AR) (Homo sapiens, UniProt P08588)? Entry: CC(C)CNC[C@H](O)c1cc(F)cc2[nH]ncc12
Outgoing: < 10 nM

Incoming: What is its EC50 for β1-adrenergic receptor (B1-AR) (Homo sapiens, UniProt P08588)? Entry: CC(C)(C)NCC(O)c1ccnc2ccccc12 (stereo not shown)
Outgoing: 10 to 100 nM

Incoming: What is its EC50 for β1-adrenergic receptor (B1-AR) (Homo sapiens, UniProt P08588)? Entry: CC(C)(C)NC[C@H](O)c1ccc2cccc(C#N)c2n1
Outgoing: < 10 nM

Incoming: What is its EC50 for β1-adrenergic receptor (B1-AR) (Homo sapiens, UniProt P08588)? Entry: Cn1c(=O)ccc2c([C@H](O)CNC(C)(C)C)cccc21
Outgoing: > 1000 nM

Incoming: What is its EC50 for β1-adrenergic receptor (B1-AR) (Homo sapiens, UniProt P08588)? Entry: CC(C)(C)NC[C@@H](O)c1cccc2oc(=O)ccc12
Outgoing: 100 to 1000 nM

Incoming: What is its EC50 for β1-adrenergic receptor (B1-AR) (Homo sapiens, UniProt P08588)? Entry: Cc1noc2cccc([C@H](O)CNC(C)(C)C)c12
Outgoing: > 1000 nM

These measurements were taken from patent US20220315534A1.
